# Test system: MS2 coat protein
# RUN DESCRIPTION: apparent KD of MS2 coat protein; designed switch direction (-1 OFF switch, 1 ON switch): -1; higher = weaker reporter binding
# SETUP CONDITIONS: Eterna round: R95; input ligand: microRNA oligo, concentration not stated
Criterion: apparent KD of MS2 coat protein meeting or surpassing 0.08 µM. Met: satisfied. Not met: not satisfied.

Check out these entries, answers already filled in.
RESIDUE SEQUENCE	ASSIGNED CATEGORY
GAAAAGGAAGGAUAUACGAAAAAAAAGGGUAGAAAAAAAACACAUGAGGAUCACCCAUGUAGAAGGUCCAAAAG [salish99_ex2_r3_092] (puzzle: Exclusion 2)	not satisfied
GGAUAAGGCGAGGAUAUCCAGAAACCCGACAAAGGAGAAGGCGCAACAUGAGGAUCACCCAUGUGGGUGCAUGU [Xeaormara] (puzzle: Exclusion 6)	satisfied
CUUAGACAUGAGGAUCACCCAUGUGAGGAUAUGAUGCGAUCGUGCUGACAUGAUCGCAUCAGAAGGCACAAAUG [Mat - Mod of JL D65] (puzzle: Exclusion 1)	satisfied

Now look at this one.
Problem: Does the sequence AGAUGGCGAGGAUAUACAUGAGGAUCACCCAUGUGAGAUAAAAGAGUGAGGAAGAAAAGUAGAAGGCGCUGUCA [Mat - Exclusion 3 - Mod of Salish D16] (puzzle: Exclusion 3) have recorded apparent KD of MS2 coat protein that is 0.08 µM or more?
Result: satisfied

###

# System: MS2 coat protein
# RUN DESCRIPTION: apparent KD of MS2 coat protein; designed switch direction (-1 OFF switch, 1 ON switch): -1; higher = weaker reporter binding
# SETUP CONDITIONS: input ligand: none
Record form. Attribute: apparent KD of MS2 coat protein. Fill in for each entry.
One number for each entry, in nM.

RESIDUE SEQUENCE	apparent KD of MS2 coat protein (nM)
CUUGUUUAUGUAGGAUAUGCCUGGCGUGCCUUUGCAGAAGGACAUGAGGAUCACCCAUGUAUUGCGGUCUGCGUUCAGAUCGCA [salish99_ExNG1_r4_045] (Eterna round: R96, puzzle: Exclusion NG 1)	34.5

Each of the following entries comes with a recorded value; kindly state apparent KD of MS2 coat protein for each.
1. ACAUGAGGAUCACCCAUGUUAGGUUGGUUUUCUCCGGCUGUUGAGGAUAUAGUCCGGUAUCCGCGCUAGAAGGUGAGGGUUGGC [Aenatbe mod 9] (Eterna round: R96, puzzle: Exclusion NG 3)
2. UGUGGGUCAGGAUAUUCUAUUUAUUACAUGAGGAUCACCCAUGUGAAUGUACAAGGGUGUGAAGAAGGGACUUGUG [LRO-Excl5-02-mod A17d by Omei] (Eterna round: R97, puzzle: Exclusion 5)

Result:
64.9
2360

###

# System: MS2 coat protein
# RUN DESCRIPTION: apparent KD of MS2 coat protein, switch ON state; designed switch direction (-1 OFF switch, 1 ON switch): -1; higher = weaker reporter binding
# SETUP CONDITIONS: FMN input: 0 or 200 uM; Eterna round: R93 (includes R88 designs)
METRIC NAME: apparent KD of MS2 coat protein (nM)
One number for each entry, in nM.

> print(dat)
                           residue.sequence                      metric.name  observed.value
1  GCUUGGGAAGGAUAUACAUGAGGAUCACCCAUGUGAGAGAAAAAAGUGAGAAAGAAAAGUAGAAGGUCUUGAGG [salish99-ex3-84]  apparent KD of MS2 coat protein            69.5
2  AAAAAGUGAGGAUAUACAUGAGGAUCACCCAUGUGUAUAAAAAAUUACACGAAAGAAUGUAGAAGGCACUAAAA [JL Mayanne Mod 3]  apparent KD of MS2 coat protein            18.2
3  AAGAACUCAGGAUAUACAAAAUAAAAGAAAAGAAAGAAAGAACAUGAGGAUCACCCAUGUAGAAGGGAGAAGAA [Sobekkare Sobekneferu]  apparent KD of MS2 coat protein            61.2
4  AGCUAGUCAGGAUAUACGAACAUGUCAAAAGACGUAAGGGAACAUGAGGAUCACCCAUGUAGAAGGGACUCGCA [Diamond 51]  apparent KD of MS2 coat protein            61.3
5  AACAAGUGAGGAUAUCGGAAAAGUAAAUAAGUAAAACAAAACGAGAAGGCACAUGAGGAUCACCCAUGUAAAUA [JR_Exc004_Sub014]  apparent KD of MS2 coat protein              17

Hey, can you go through the list below and give me apparent KD of MS2 coat protein for every item?
1. AAAACGGUAGGAUAUACGAUUUGGAACUAGACCGAGGAACCACAUGAGGAUCACCCAUGUAGAAGGGCCAAAAA [EX2 Malc#17]
2. GCUUGUGUAGGAUAUACAUGAGGAUCACCCAUGUGAGAGAAAAAAGUGAGAAAGAAAAGUAGAAGGACGUGAGG [salish99-ex3-80]
3. AAAACACAUGAGGAUCACCCAUGUGAGGAUAUGAACGAAAAUAAAUAAAAAUAAAAGUUCAGAAGGCACAAAAA [66%, Wbt, 11]
4. GAGAAUGAAGGAUAUACAUGAGGAUCACCCAUGUAAGAGAAAGAGGGAAAAGAGAAAAGUAGAAGGUCAAAGAG [Ruby 73]

Result:
[15.6, 86.5, 24.2, 23.8]

Fill in apparent KD of MS2 coat protein for each of the 4 sequences listed.
1. AGCUAGUCAGGAUAUACAAAAUGAUUGCGAAAGCAAUCAACACAUGAGGAUCACCCAUGUAGAAGGGACUAGCA [Mat - Exclusion 2 - JL-Eli mod - D43]
2. AAGAAACUAGGAUAUACAAGGAAGAAAGAAAAGAAAAGAAAACAUGAGGAUCACCCAUGUAGAAGGAGUUAGAA [EteRNA is fun!]
3. AAAAAGGUAGGAUAUACAUGAGGAUCACCCAUGUAAAAAAAUGGAGAAAAAAACAAUUGUAGAAGGGCCAAAAA [Ex3 Malc#7]
4. CUCAUGUCAGGAUAUGUAGCAUGAUACGAAAGUAUCAUGCUACAGAAGGGACAUGAGGAUCACCCAUGUAAAAA [Ex4: 942]

Result:
1. 18.5
2. 36.3
3. 38.8
4. 20.2
